assay: Toxicity liver stage against HepG2, at 10uM; assay type: cell-based; design: test concentration 10 uM, cell line HepG2-A16-CD81EGFP; conditions: human, HepG2-A16-CD81EGFP cells; read-out: INHIBITION
endpoint: cytotoxicity at 10 µM (%)

CCCc1noc2ncc(C(=O)N3CCCC3c3cnn(C)c3)cc12 (stereo not drawn)
-11.9
O=C(NCc1cc[nH]n1)NC1CCCN(c2ncccn2)C1 (stereo not drawn)
-2.26
CC(=O)Nc1nc(CN2CCCC2Cn2cc(C)cn2)cs1 (stereo not drawn)
3.22
Clc1ccc(OCCCN2CCN(c3cnccn3)CC2)cc1
-8.11
Cc1cccc(N2CCC(N3CCC4(CCCNC4=O)C3)CC2)c1C (stereo not drawn)
-5.66
CCn1nc2c(cc1=O)CN(CC(=O)Nc1nncs1)CC2
-0.284
Cc1cc(CN2CC[C@H]3OCC[C@@]3(C(=O)N3CCOCC3)C2)no1
7.93
CC(C)CC(=O)N1CCc2ccc(S(=O)(=O)N3CCN(C)CC3)cc2C1
-15.3
Cc1nc2ccccc2c(=O)n1CCCC(=O)N1CCNC(=O)CC1
-11.8
CN1CC2(CCN(C(=O)c3ccc(-n4cccn4)cc3Cl)C2)OC1=O (stereo not drawn)
4.36
COc1cccc(OCCc2cncc(C(N)=O)c2)c1
-135
Cc1cc(C)c(CNC(=O)N2CCCC2c2ccccn2)c(=O)[nH]1 (stereo not drawn)
1.17
Cc1occc1C(=O)N1CC[C@@H]2[C@@H](CO[C@H]2CNS(C)(=O)=O)C1
11.3
Cc1nnc2n1CCN(C(=O)c1cc(C)n(-c3ccccn3)c1C)C2
0.765
O=C(O)C1(O)CCN(c2ccc3cccc(Cl)c3n2)CC1
4.57
O=C1CO[C@H]2CN(C3CCOCC3)C[C@H]2N1Cc1ccncc1
5.89
CS(=O)(=O)N1CCN(c2ccnc(N3CCCCC3)n2)CC1
-0.359
Cc1noc(C(C)N2CCN(c3ncnc4ccccc34)CC2)n1 (stereo not drawn)
17.7
O=C(N1CCC(Oc2ccncc2)CC1)C1(c2ccc(F)cc2)CC1
-7.66
COCCc1noc(CNC(=O)C2CC(=O)N(C(C)(C)C)C2)n1 (stereo not drawn)
3.77
CN1CCOC(CNCc2cnc(C(C)(C)C)s2)C1 (stereo not drawn)
-2.87
Cn1c(=O)oc2ccc(NC(=O)N3CCOCC3)cc21
-5.09
O=C(CNC(=O)c1cnc2ccccc2c1O)NCCCn1ccnc1
-5.28
